studySystem: ALK (Homo sapiens (Human))
Sequence (Q9UM73 19-1620): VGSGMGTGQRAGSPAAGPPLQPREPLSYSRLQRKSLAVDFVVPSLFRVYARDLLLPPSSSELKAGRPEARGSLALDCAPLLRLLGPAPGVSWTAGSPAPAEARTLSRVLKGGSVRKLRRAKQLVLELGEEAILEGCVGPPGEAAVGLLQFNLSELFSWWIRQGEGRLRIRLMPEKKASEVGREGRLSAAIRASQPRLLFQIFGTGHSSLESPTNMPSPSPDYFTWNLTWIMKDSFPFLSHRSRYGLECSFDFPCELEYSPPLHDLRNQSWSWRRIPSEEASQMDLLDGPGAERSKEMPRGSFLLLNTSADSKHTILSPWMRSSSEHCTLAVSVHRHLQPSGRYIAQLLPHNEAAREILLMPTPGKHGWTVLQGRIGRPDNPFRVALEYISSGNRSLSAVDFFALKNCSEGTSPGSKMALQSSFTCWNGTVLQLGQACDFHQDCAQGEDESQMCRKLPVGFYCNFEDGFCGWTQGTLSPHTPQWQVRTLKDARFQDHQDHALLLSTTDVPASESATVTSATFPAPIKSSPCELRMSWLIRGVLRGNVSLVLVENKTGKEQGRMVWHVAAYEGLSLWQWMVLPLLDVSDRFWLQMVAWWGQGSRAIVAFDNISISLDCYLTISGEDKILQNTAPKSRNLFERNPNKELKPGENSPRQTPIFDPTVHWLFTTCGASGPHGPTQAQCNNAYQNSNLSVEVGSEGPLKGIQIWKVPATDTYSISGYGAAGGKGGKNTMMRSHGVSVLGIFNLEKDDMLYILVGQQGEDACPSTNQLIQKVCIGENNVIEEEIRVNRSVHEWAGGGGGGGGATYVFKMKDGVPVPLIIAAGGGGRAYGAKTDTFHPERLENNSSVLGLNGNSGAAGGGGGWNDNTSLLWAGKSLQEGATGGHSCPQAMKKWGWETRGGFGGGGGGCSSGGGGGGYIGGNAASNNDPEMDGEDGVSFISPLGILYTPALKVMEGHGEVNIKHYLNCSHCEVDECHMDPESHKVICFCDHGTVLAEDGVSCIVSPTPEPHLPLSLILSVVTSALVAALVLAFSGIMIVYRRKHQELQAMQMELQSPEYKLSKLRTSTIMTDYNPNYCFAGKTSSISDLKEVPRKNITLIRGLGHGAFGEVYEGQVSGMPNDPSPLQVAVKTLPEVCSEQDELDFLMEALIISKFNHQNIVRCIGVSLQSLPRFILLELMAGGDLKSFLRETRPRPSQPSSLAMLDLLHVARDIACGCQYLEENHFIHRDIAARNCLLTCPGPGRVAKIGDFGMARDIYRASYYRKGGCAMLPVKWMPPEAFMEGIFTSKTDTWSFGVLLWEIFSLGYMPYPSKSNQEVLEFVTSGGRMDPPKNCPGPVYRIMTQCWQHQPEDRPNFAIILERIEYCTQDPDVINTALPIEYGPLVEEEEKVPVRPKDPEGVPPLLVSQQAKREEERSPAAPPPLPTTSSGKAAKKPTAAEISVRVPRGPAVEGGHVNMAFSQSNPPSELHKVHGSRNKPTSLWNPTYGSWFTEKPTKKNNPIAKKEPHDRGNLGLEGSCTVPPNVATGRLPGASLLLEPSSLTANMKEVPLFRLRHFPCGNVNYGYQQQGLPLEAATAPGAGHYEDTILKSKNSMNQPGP
measurementNotes: Radio-tagged HotSpot kinase assay, ALK
Type: biochemical
IC50 overview

compoundStructureString	studySystem	IC50
CONC(=O)c1cnn2ccc(N[C@H](C)c3cc(F)cc(F)c3F)nc12	ALK (Homo sapiens (Human))	5 to 50 nM
C[C@@H](Nc1ccn2ncc(C3=NN=CC(C)(C)N3)c2n1)c1cc(F)cc(F)c1F	ALK (Homo sapiens (Human))	5 to 50 nM
COc1ccc(F)cc1[C@@H](C)Nc1ccn2ncc(NC3=NC(C)(C)CN3)c2n1	ALK (Homo sapiens (Human))	5 to 50 nM
C[C@@H](Nc1ccn2ncc(C3=NOCCN3)c2n1)c1cc(F)ccc1C(F)(F)F	ALK (Homo sapiens (Human))	5 to 50 nM
C[C@@H](Nc1ccn2ncc(C3=NC(=O)C(C)(C)N3)c2n1)c1cc(F)cc(F)c1F	ALK (Homo sapiens (Human))	0.5 to 5 nM
CCOc1ncc(F)cc1[C@@H](C)Nc1ccn2ncc(C3=NOCCN3)c2n1	ALK (Homo sapiens (Human))	0.5 to 5 nM
C[C@@H](Nc1ccn2ncc(C3=NOCCN3)c2n1)c1cc(F)cc(F)c1F	ALK (Homo sapiens (Human))	0.5 to 5 nM
COc1ccc(F)cc1[C@@H](C)Nc1ccn2ncc(NC3=NC(C)(C)CO3)c2n1	ALK (Homo sapiens (Human))	0.5 to 5 nM
C[C@@H](Nc1ccn2ncc(C3=NOCCN3)c2n1)c1cc(F)cc(C(F)(F)F)c1F	ALK (Homo sapiens (Human))	5 to 50 nM
COc1c(F)cc(F)cc1[C@@H](C)Nc1ccn2ncc(NC3=NC(C)(C)CO3)c2n1	ALK (Homo sapiens (Human))	5 to 50 nM
C[C@@H](Nc1ccn2ncc(C3=NOCCN3)c2n1)c1cc(F)ccc1OC(F)F	ALK (Homo sapiens (Human))	0.5 to 5 nM
C[C@@H](Nc1ccn2ncc(C3=NC(=O)C(C)(C)N3)c2n1)c1cc(F)cnc1OCC(F)(F)F	ALK (Homo sapiens (Human))	5 to 50 nM

---

studySystem: ROS1 (G2032R) (Homo sapiens (Human), UniProt P08922, G2032R)
Sequence (P08922 28-2347 G2032R): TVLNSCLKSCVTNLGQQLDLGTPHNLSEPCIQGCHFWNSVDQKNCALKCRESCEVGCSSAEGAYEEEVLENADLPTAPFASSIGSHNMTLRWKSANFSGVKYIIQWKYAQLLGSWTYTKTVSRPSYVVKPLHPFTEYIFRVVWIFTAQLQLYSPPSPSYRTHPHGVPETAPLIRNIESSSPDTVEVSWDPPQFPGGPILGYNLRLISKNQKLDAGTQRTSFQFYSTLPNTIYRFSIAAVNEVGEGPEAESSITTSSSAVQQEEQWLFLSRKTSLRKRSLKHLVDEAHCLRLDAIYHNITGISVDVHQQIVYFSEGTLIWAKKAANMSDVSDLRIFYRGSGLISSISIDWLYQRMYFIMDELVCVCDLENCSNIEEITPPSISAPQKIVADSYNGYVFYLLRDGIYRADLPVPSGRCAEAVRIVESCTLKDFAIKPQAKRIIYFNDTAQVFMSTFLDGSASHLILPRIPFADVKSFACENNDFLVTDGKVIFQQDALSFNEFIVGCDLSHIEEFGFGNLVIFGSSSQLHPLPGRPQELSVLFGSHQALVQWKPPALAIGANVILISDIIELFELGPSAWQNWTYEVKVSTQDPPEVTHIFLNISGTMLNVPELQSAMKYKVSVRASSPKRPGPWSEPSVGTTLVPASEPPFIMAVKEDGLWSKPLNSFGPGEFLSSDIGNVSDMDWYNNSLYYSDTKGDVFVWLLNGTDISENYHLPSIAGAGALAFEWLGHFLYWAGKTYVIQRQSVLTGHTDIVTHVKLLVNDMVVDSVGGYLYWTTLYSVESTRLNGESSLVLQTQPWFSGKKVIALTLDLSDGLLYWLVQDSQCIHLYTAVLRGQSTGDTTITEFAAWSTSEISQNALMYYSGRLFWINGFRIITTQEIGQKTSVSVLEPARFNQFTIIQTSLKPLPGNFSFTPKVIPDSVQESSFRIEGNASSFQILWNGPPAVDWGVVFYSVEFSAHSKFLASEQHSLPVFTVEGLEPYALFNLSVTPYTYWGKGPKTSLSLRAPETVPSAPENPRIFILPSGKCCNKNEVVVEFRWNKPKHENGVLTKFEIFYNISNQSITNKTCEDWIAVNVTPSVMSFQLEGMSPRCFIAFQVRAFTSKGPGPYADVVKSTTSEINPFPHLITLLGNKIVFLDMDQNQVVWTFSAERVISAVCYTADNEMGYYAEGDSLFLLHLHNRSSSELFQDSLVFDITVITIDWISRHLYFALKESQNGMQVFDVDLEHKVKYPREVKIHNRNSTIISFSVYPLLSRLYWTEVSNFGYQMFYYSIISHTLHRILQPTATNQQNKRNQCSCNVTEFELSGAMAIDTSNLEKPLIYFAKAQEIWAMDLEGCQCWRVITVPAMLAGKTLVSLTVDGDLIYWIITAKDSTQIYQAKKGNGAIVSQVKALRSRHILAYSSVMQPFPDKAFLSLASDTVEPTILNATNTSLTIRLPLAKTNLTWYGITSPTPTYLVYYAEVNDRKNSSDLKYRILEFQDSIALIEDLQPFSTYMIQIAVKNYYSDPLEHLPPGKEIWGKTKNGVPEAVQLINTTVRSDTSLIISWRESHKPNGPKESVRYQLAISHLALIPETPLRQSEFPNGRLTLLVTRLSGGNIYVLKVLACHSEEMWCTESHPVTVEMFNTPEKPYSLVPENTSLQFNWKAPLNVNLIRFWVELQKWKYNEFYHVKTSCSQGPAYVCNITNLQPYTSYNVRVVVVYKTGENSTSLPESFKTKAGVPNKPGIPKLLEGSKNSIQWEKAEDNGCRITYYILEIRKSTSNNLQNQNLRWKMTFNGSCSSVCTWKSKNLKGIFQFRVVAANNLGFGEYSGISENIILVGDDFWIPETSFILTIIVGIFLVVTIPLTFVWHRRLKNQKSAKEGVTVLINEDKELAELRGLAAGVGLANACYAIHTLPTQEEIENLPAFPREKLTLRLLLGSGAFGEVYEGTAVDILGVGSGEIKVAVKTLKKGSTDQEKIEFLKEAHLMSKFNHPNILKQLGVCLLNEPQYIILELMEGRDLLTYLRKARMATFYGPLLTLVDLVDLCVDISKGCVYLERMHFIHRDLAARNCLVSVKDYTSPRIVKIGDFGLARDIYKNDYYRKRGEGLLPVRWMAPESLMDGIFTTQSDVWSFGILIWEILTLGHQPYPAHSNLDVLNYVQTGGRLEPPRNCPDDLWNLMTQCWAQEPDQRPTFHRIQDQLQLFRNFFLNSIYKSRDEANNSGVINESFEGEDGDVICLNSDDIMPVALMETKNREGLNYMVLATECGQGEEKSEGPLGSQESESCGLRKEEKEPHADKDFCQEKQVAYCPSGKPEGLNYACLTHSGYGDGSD
measurementNotes: Radio-tagged HotSpot kinase assay, ROS1 (G2032R)
Format: biochemical
IC50 overview
measuredParameter: IC50

compoundStructureString	measuredParameter	measuredValue
C[C@@H](Nc1ccn2ncc(OC3=NCC(C)(C)N3)c2n1)c1cc(F)cc(F)c1F	IC50	5 to 50 nM
C[C@@H](Nc1ccn2ncc(C3=NC(=O)C(C)(C)N3)c2n1)c1cc(F)ccc1OC(F)F	IC50	< 0.5 nM
CCOc1ncc(F)cc1[C@@H](C)Nc1ccn2ncc(C3=NOCCN3)c2n1	IC50	0.5 to 5 nM
CCCOC(=O)/N=C(\N)c1cnn2ccc(N[C@H](C)c3cc(F)cc(F)c3F)nc12	IC50	5 to 50 nM

---

studySystem: ROS1 (Homo sapiens (Human), UniProt P08922)
measurementNotes: Radio-tagged HotSpot kinase assay, ROS1
Type: biochemical
Procedure: Inhibition of protein kinase activity by compounds was carried out on the Radio-tagged HotSpot kinase experimental platform of Reaction Biology Corporation. […] Transferred the incubated reaction solution to P81 ion exchange chromatographic paper (Whatman #3698-915), eluted with […] phosphoric acid solution, and the amount of radioactive phosphorylated substrate remaining on the chromatographic paper was detected.
measuredParameter: IC50

compound	measuredValue
C[C@@H](Nc1ccn2ncc(C3=NOCCN3)c2n1)c1cc(F)ccc1OC(F)F [Example 9]	< 0.5 nM
C[C@@H](Nc1ccn2ncc(NC3=NC(C)(C)CO3)c2n1)c1cc(F)cc(F)c1F [Example 2]	0.5 to 5 nM
C[C@@H](Nc1ccn2ncc(C3=NOCCN3)c2n1)c1cc(F)cc(F)c1F [Example 3]	< 0.5 nM
C[C@@H](Nc1ccn2ncc(C3=NC(=O)C(C)(C)N3)c2n1)c1cc(F)cc(F)c1F [Example 8]	< 0.5 nM
COc1ccc(F)cc1[C@@H](C)Nc1ccn2ncc(C3=NC(=O)C(C)(C)N3)c2n1 [Example 7]	< 0.5 nM
C[C@@H](Nc1ccn2ncc(C(=O)NOCCO)c2n1)c1cc(F)cc(F)c1F [Example 13]	5 to 50 nM
C[C@@H](Nc1ccn2ncc(C3=NOCCN3)c2n1)c1cc(F)ccc1C(F)(F)F [Example 27]	0.5 to 5 nM
CONC(=O)c1cnn2ccc(N[C@H](C)c3cc(F)cc(F)c3F)nc12 [Example 24]	5 to 50 nM
C[C@@H](Nc1ccn2ncc(C3=NOCC(C)(C)N3)c2n1)c1cc(F)cc(F)c1F [Example 4]	< 0.5 nM
C[C@@H](Nc1ccn2ncc(OC3=NCC(C)(C)N3)c2n1)c1cc(F)cc(F)c1F [Example 15]	0.5 to 5 nM
COc1c(F)cc(F)cc1[C@@H](C)Nc1ccn2ncc(C3=NC(=O)C(C)(C)N3)c2n1 [Example 20]	< 0.5 nM
C[C@@H](Nc1ccn2ncc(C3=NC(=O)C(C)(C)N3)c2n1)c1cc(F)cnc1OCC(F)(F)F [Example 23]	< 0.5 nM
C[C@@H](Nc1ccn2ncc(C3=NOCC(C)(C)N3)c2n1)c1cc(F)ccc1OC(F)F [Example 16]	0.5 to 5 nM
C[C@@H](Nc1ccn2ncc(C3=NOCCN3)c2n1)c1cc(F)ccc1OC(F)(F)F [Example 26]	< 0.5 nM
COc1ncc(F)cc1[C@@H](C)Nc1ccn2ncc(C3=NC(=O)C(C)(C)N3)c2n1 [Example 10]	< 0.5 nM
CCOc1ncc(F)cc1[C@@H](C)Nc1ccn2ncc(C3=NOCCN3)c2n1 [Example 22]	< 0.5 nM
COc1ccc(F)cc1[C@@H](C)Nc1ccn2ncc(OC3=NC(C)(C)CN3)c2n1 [Example 14]	0.5 to 5 nM
C[C@@H](Nc1ccn2ncc(C3=NC(=O)C(C)(C)N3)c2n1)c1cc(F)ccc1OC(F)F [Example 6]	< 0.5 nM
C[C@@H](Nc1ccn2ncc(C3=NN=CC(C)(C)N3)c2n1)c1cc(F)cc(F)c1F [Example 5]	0.5 to 5 nM
C[C@@H](Nc1ccn2ncc(C3=NOCCN3)c2n1)c1cc(F)cc(C(F)(F)F)c1F [Example 19]	0.5 to 5 nM
CCCOC(=O)/N=C(\N)c1cnn2ccc(N[C@H](C)c3cc(F)cc(F)c3F)nc12 [Example 11]	0.5 to 5 nM
COc1c(F)cc(F)cc1[C@@H](C)Nc1ccn2ncc(NC3=NC(C)(C)CO3)c2n1 [Example 18]	0.5 to 5 nM
COc1ccc(F)cc1[C@@H](C)Nc1ccn2ncc(NC3=NC(C)(C)CO3)c2n1 [Example 1]	0.5 to 5 nM
C[C@@H](Nc1ccn2ncc(C3=NC(=O)C(C)(C)N3)c2n1)c1cc(F)cnc1OC(F)(F)F [Example 25]	< 0.5 nM
C[C@@H](Nc1ccn2ncc(NC3=NCC(C)(C)N3)c2n1)c1cc(F)cc(F)c1F [Example 17]	0.5 to 5 nM
C[C@@H](Nc1ccn2ncc(C3=NOCCN3)c2n1)c1cc(F)ccc1C(F)F [Example 28]	0.5 to 5 nM
COc1ccc(F)cc1[C@@H](C)Nc1ccn2ncc(NC3=NC(C)(C)CN3)c2n1 [Example 12]	0.5 to 5 nM
C[C@@H](Nc1ccn2ncc(C3=NC(=O)C(C)(C)N3)c2n1)c1cc(F)ccc1OC(F)(F)F [Example 21]	< 0.5 nM
